- System: MS2 coat protein
- METHOD_DESCRIPTION: apparent KD of MS2 coat protein; designed switch direction (-1 OFF switch, 1 ON switch): -1; higher = weaker reporter binding
- CONDITION_SET: input ligand: FMN 200 uM
READOUT_NAME: apparent KD of MS2 coat protein (nM)
Reply with just the number (in nM).

| SEQUENCE_RECORD | apparent KD of MS2 coat protein / nM |
| --- | --- |
| UACAUGAGGAUCACCCAUGUUUUGUCGUGUAUGGUAUUUAUCUAGGAUAUCAAUGUAUGUAUUUAUGAGAAGGAGAAUAUUAAU [JMF's solution 43] (Eterna round: R96, puzzle: Exclusion NG 3) | 47.2 |

For the sequence ACUUGUGUUGAGGAUAUGCGCCGGCUCGCUGGCGCAGAAGGCGGCACAUGAGGAUCACCCAUGUCAGUUCGCGC [salish99_ex6_r004_001] (Eterna round: R97, puzzle: Exclusion 6) , give its measured apparent KD of MS2 coat protein value. 138

For the sequence GACUUCUCUGAGGAUAUUGCAUCAUACGAUAAAUAAGAAGGCAGAACAUGAGGAUCACCCAUGUGGGUUUCAAG [Bingo-Bango-34] (Eterna round: R97, puzzle: Exclusion 6) , give its measured apparent KD of MS2 coat protein value. 170

====

- System: MS2 coat protein
- METHOD_DESCRIPTION: apparent KD of MS2 coat protein; designed switch direction (-1 OFF switch, 1 ON switch): -1; higher = weaker reporter binding
- CONDITION_SET: input ligand: microRNA oligo, concentration not stated
Reported apparent KD of MS2 coat protein values for the following sequences.
Reply with just the number (in nM).

| SEQUENCE_RECORD | apparent KD of MS2 coat protein [nM] |
| --- | --- |
| ACAUGAGGAUCACCCAUGUGAAACCAAUGGCUGACUUUGAGACAGGAUAUUCGUGCAUAUCAAACGAAGAAGGGUCAUUACUGG [Deportation 95 - Jieux - Exclusion NG 3] (Eterna round: R96, puzzle: Exclusion NG 3) | 41.1 |

For the sequence GGAUAAAAGGCAGGAUAUACGUAUCACUAACGAGUAGAAGGGCCACAUGAGGAUCACCCAUGUGAGUUCUCAAUAAGAAACACG [Prohibition 63 - Jieux - Exclusion NG 1] (Eterna round: R96, puzzle: Exclusion NG 1) , give its measured apparent KD of MS2 coat protein value. 10.7

For the sequence AAGGACCGUGUAGGAUAUGCACUGAAUAGGUCAGGAGGGUUCUUACACAUGAGGAUCACCCAUGUGUAGAAGGACGGAAGGUCA [Eternabot solution 25] (Eterna round: R96, puzzle: Exclusion NG 2) , give its measured apparent KD of MS2 coat protein value. 11.4

====

- Test system: MS2 coat protein
- METHOD_DESCRIPTION: apparent KD of MS2 coat protein, switch ON state; designed switch direction (-1 OFF switch, 1 ON switch): 1; higher = weaker reporter binding
- CONDITION_SET: FMN input: 0 or 200 uM; Eterna round: R93 (includes R88 designs)
READOUT_NAME: apparent KD of MS2 coat protein (nM)
Reply with just the number (in nM).

# example entries with known answers
| SEQUENCE_RECORD | READOUT_NAME | RECORDED_MEASUREMENT |
| --- | --- | --- |
| GAAAAACAUGAGGAUCACCCAUGUAGAAAUAUGGGAGGAUAUACAAAGACGAAAGUCAAAGUAGAAGGCCUAAAGA [Mat - Same State 1 - Eli mod - 34] | apparent KD of MS2 coat protein | 15.5 |
| AUAUAUAUAAGGAAGGAUAUCUUAGAAAAAACAUGAGGAUCACCCAUGUAAAUAAAGAAUAAAUGGGAGAAGGUCCAUAUAUAUA [77%, More Tesla, 10] | apparent KD of MS2 coat protein | 15.1 |
| UGUCCACAUGAGGAUCACCCAUGUCAGGAGGUGACAGGAUAUUGCGAAAAAAAAAAAAAGCAAGAAGGGUCUGAUU [SameState1-cac1] | apparent KD of MS2 coat protein | 36.4 |
| AAAUAAAUGACUCAGGAUAUAUCAGAGAAAACAUGAGGAUCACCCAUGUAAUAAUAACAUGUGUGGUAGAAGGGAGUCAAUAAAU [LROPPY Same State 2 - v03_deltaG=2.1] | apparent KD of MS2 coat protein | 13.5 |
| AGGAAACAUGAGGAUCACCCAUGUAAAAAAUGGGUAGGAUAUGCGAAAAGAAAAAGAAAAGCAGAAGGGCCAAGAA [62%, Something completely different, 3] | apparent KD of MS2 coat protein | 46 |
| AAGAAACAUGAGGAUCACCCAUGUAAGAUUAUGGGAGGAUAUGCGAAAAGAAACAAAGAAGCAGAAGGCCUAAGAA [75%, Ex5 sub 1, 4] | apparent KD of MS2 coat protein | 15.7 |
| GAGGACAUAGUACAGGAUAUAUGAAUAGUCACAUGAGGAUCACCCAUGUCCAUUUAUAUGGGCACAUAGAAGGGUGGUAGUUAUC [SameState2 Malc#27] | apparent KD of MS2 coat protein | 24.6 |
| AAAAAAUAAAAAAAGGAUAUAAUGCUACAGACAUGAGGAUCACCCAUGUAGGUAGCAAAAAUAAAAAAGAAGGAAAAAUAAAAAA [SS2: MS2 31] | apparent KD of MS2 coat protein | 11.4 |

Send back MS2 coat protein apparent KD of MS2 coat protein of AUAAUAAGAAGCUAGGAUAUGCUAAAGUAAACAUGAGGAUCACCCAUGUAAAGAAAAAAACUCAUGUAGAAGGAGCAGAAAUAAA [moonwalk 6] only. 99.1

Send back MS2 coat protein apparent KD of MS2 coat protein of GAGAGACAUGAGGAUCACCCAUGUAGGAUUAUGGGAGGAUAUACAAAGACGAGAGUCAGAGUAGAAGGCCUAGGAA [salish99-ss1-137(!)] only. 24.2

Send back MS2 coat protein apparent KD of MS2 coat protein of AAAAAAAAAAGACAGGAUAUCCAAAAAAAAACAUGAGGAUCACCCAUGUAAAAAAAAAAAAAGUGGGAGAAGGGUCAAAAAAAAAA [Louisiana 4 - Jieux - Same State 2] only. 24.9

====

- Test system: MS2 coat protein
- METHOD_DESCRIPTION: apparent KD of MS2 coat protein; designed switch direction (-1 OFF switch, 1 ON switch): 1; higher = weaker reporter binding
- CONDITION_SET: input ligand: FMN 200 uM
READOUT_NAME: apparent KD of MS2 coat protein
Give the figure together with its unit, number first.

| SEQUENCE_RECORD | apparent KD of MS2 coat protein |
| --- | --- |
| GGUCCAGCCUGAGCUGGACAAAAGCAUGUACAUGAGGAUCACCCAUGUCAUGUACAAGCUUUUUGCUCGUCAUAAAU [Mat - hsa-mir-208a - 96] (Eterna round: R96, puzzle: Sensor for hsa-mir-208a) | 573 nM |

For the sequence AGAUCAUGACGAGGAUAUGCGACAUGAGGAUCACCCAUGUAUGUUGCAGGACGCGUACGUCCAAUGUAGAAGGCGUCGUGGUCA [JL SSNG2 1.05] (Eterna round: R96, puzzle: Same State NG 2) , give its measured apparent KD of MS2 coat protein value. 22.8 nM

====

Reported apparent KD of MS2 coat protein values for the following sequences.
- Tested on: MS2 coat protein
- METHOD_DESCRIPTION: apparent KD of MS2 coat protein; designed switch direction (-1 OFF switch, 1 ON switch): 1; higher = weaker reporter binding
- CONDITION_SET: Eterna round: R95; input ligand: FMN 200 uM
Reply with just the number (in nM).

| SEQUENCE_RECORD | UNITS | apparent KD of MS2 coat protein |
| --- | --- | --- |
| ACAAGCUUUUCUGCAUUGAAAGGUUGAUAACAUGAGGAUCACCCAUGUUUAUAUGAAAAUAAUGCUCCUCGUCUUAU [JR_SHM208A_Sub094] (puzzle: Sensor for hsa-mir-208a) | nM | 55.4 |
| AUUUAACAAGCUUUUUGCUCGUCUUAUAAACAUGAGGAUCACCCAUGUAAUAGCGUGAGAGUAAUUAUAUAAAUAAU [JMF 86] (puzzle: Sensor for hsa-mir-208a) | nM | 16.4 |
| CCGGUACAUGAGGAUCACCCAUGUUGCGGCAGGACAGGAUAUGGGCGAGAAUAUGUAGGCCCAGAAGGGUCAUCAC [Qure] (puzzle: Same State 1) | nM | 24.1 |
| GUAAAACAUGAGGAUCACCCAUGUAAUAAUAUGGGAGGAUAUCAGAAUGUAUGUAUGUAAUGAGAAGGCCUAAAUG [Mat - Same State 1 - Mod of Eli - D74] (puzzle: Same State 1) | nM | 101 |

For the sequence UUAAGCCACGGGCAGGAUAUGUAUUAAUAUACAUGAGGAUCACCCAUGUGCAGGUGUAACACCUGACAGAAGGGCCAAUCGCGGC [Soondi - 5] (puzzle: Same State 2) , give its measured apparent KD of MS2 coat protein value. 35

For the sequence GCAGAACAUGAGGAUCACCCAUGUCUCUAAUAUUGAGGAUAUGGGCACGGUAUAUCCGAACCAGAAGGCGAACUGC [SS1 Teenbexe 16] (puzzle: Same State 1) , give its measured apparent KD of MS2 coat protein value. 420

For the sequence AGUCUACGGUGACGUAGACAGUAGUGCGUACAUGAGGAUCACCCAUGUCAUGUAAGAGUUACUUGUUCGUCUUGAAC [SENSOR #3] (puzzle: Sensor for hsa-mir-208a) , give its measured apparent KD of MS2 coat protein value. 20.4

For the sequence GGCAGGUGCAGGCUUGCUUGCACCUGGAAACAUGAGGAUCACCCAUGUUUGGGACAAGCUUUGCUCUUCGUCUUUUC [JL ViennaUCT Isusreraar mod 5] (puzzle: Sensor for hsa-mir-208a) , give its measured apparent KD of MS2 coat protein value. 43.7

For the sequence AAAGCAAUGGUACAGGAUAUGUACGGUCGUACAUGAGGAUCACCCAUGUCGCUGGAAAGGUAGAUACAGAAGGGUGCCCAUGCGU [Riintile] (puzzle: Same State 2) , give its measured apparent KD of MS2 coat protein value. 34.4

For the sequence AACAAUCUAUCUGAGGAUAUCAUGAAAAAAACAUGAGGAUCACCCAUGUGCAGGAAAACUGCAUAUGAGAAGGCAGAUAGAUUGU [salish99_SS2_r3_002] (puzzle: Same State 2) , give its measured apparent KD of MS2 coat protein value. 28.9

Data credit: the supplement of paper PMC9170038
